molecular target: T1, Human GUCY2C ECD Cleaved (human, UniProt P25092 24-430); test: SPR, human IgG1 against human GUCY2c ECD
T1 construct: also called human GUCY2c extracellular domain protein (ECD)
T1 sequence (P25092 other isoform, or with tags, fused parts or gaps): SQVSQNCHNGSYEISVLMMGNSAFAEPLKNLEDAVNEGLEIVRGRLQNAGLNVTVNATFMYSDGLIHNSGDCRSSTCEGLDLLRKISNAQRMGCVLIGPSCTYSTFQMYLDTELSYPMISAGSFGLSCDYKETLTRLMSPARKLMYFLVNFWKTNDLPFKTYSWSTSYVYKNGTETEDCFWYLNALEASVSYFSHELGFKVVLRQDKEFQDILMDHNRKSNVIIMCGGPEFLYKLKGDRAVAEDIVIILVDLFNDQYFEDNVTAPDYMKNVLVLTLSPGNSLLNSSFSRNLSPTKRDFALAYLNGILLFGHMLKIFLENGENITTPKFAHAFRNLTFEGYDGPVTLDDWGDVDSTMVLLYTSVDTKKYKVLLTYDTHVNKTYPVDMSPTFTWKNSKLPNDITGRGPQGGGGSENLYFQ
Give measured kon for each item. Keep answers brief.
Numbers only, in M⁻¹ s⁻¹.

The following binders have reported results that may help.
Request: # get_value(readout='kon', item= GUCY2C-1706 (antibody, human IgG1, V domains shown, full human IgG1/kappa) VH: EVQLVESGGGLVQPGGSLRLSCAASGFTFSSTWMHWVRQAPGKGLEWIGEIKPSNELTNVHEKFKDRFTISVDKAKNSAYLQMNSLRAEDTAVYYCTRTITTTEGYWFFDVWGQGTLVTVSS VL: DIQLTQSPSSLSASVGDRVTITCRASESVDYYGSSLMQWYQQKPGKAPKLLIYAASKLASGVPSRFSGSGSGTDFTLTISSLQPEDFATYYCQQTRKAYTFGQGTKLEIK )
Result: 198000

Request: # get_value(readout='kon', item= GUCY2C-1713 (antibody, human IgG1, V domains shown, full human IgG1/kappa) VH: EVQLVESGGGLVQPGGSLRLSCAASGFTFSHTWMHWVRQAPGKGLEWIGEIKPSRGFTNVHEKFKDRFTISVDKAKNSAYLQMNSLRAEDTAVYYCTRTITTTQGYWFFDVWGQGTLVTVSS VL: DIQLTQSPSSLSASVGDRVTITCRASESVNWYGSSLMQWYQQKPGKAPKLLIYAASKLASGVPSRFSGSGSGTDFTLTISSLQPEDFATYYCQQTRKAYTFGQGTKLEIK )
Result: 161000

# ---- query binder ----
Request: # get_value(readout='kon', item= GUCY2C-1714 (antibody, human IgG1, V domains shown, full human IgG1/kappa) VH: EVQLVESGGGLVQPGGSLRLSCAASGFTFSHTWMHWVRQAPGKGLEWIGEIKPSTKYTNVHEKFKDRFTISVDKAKNSAYLQMNSLRAEDTAVYYCARTIFTREGYWFFDVWGQGTLVTVSS VL: DIQLTQSPSSLSASVGDRVTITCRASESVNWYGSSLMQWYQQKPGKAPKLLIYAASKLASGVPSRFSGSGSGTDFTLTISSLQPEDFATYYCQQTRKAYTFGQGTKLEIK )
Result: 121000

The reported measurements were obtained from patent US20230340151A1.
